- measurementTarget: Neu5Ac(a2-3)Gal(b1-3)[Fuc(a1-4)]GlcNAc
- testName: glycan array binding signal (z-score within array); higher = stronger binding
- assaySetup: glycan notation: IUPAC condensed, linker removed
This is one part of a sample in which the strongest signals are shown more often than they occur.
Cut-off -0.2 on glycan array binding signal (z-score), inclusive. At or above means T; below means F.

I'd appreciate it if you could say whether AICL (Homo sapiens), Q92478 (protein) MMTKHKKCFIIVGVLITTNIITLIVKLTRDSQSLCPYDWIGFQNKCYYFSKEEGDWNSSKYNCSTQHADLTIIDNIEEMNFLRRYKCSSDHWIGLKMAKNRTGQWVDGATFTKSFGMRGSEGCAYLSDDGAATARCYTERKWICRKRIH has glycan array binding signal (z-score) at least equal to -0.2. F

I'd appreciate it if you could say whether AAL (Aleuria aurantia), P18891 (protein) PTEFLYTSKIAAISWAATGGRQQRVYFQDLNGKIREAQRGGDNPWTGGSSQNVIGEAKLFSPLAAVTWKSAQGIQIRVYCVNKDNILSEFVYDGSKWITGQLGSVGVKVGSNSKLAALQWGGSESAPPNIRVYYQKSNGSGSSIHEYVWSGKWTAGASFGSTVPGTGIGATAIGPGRLRIYYQATDNKIREHCWDSNSWYVGGFSASASAGVSIAAISWGSTPNIRVYWQKGREELYEAAYGGSWNTPGQIKDASRPTPSLPDTFIAANSSGNIDISVFFQASGVSLQQWQWISGKGWSIGAVVPTGTPAGW has glycan array binding signal (z-score) at least equal to -0.2. T

I'd appreciate it if you could say whether Arath Fbox (Arabidopsis thaliana), NP_178341.1 (protein) EFTWGRKRRVKSESSPFDSFPEDCISYIISFTNPRDACVAATVSKTFESTVKSDIIWEKFLPADYESLIPPSRVFSSKKELYFSLCNDPVLFDDDKKSVWLEKASGKRCLMLSAMNLSIIWGDNPQYWQWIPIPESRFEKVAKLRDVCWFEIRGRTNTRVLSPRTRYSAYIVFKGVDKCYGFQNVAIEAAVGVVGQEPSRRLICFSEAIRRGRRNVVKPKQREDGWMEIELGEFFNDGGIMDNDEIEMSALETKQLNRKCGLIIQGIEIRPAKILAAAAASFLEQKLISEEDLNSAVDHHHHHH has glycan array binding signal (z-score) at least equal to -0.2. F

I'd appreciate it if you could say whether PFL (Pseudomonas fluorescens) (protein) MSKYAVANQWGGSSAPWHPGGTWVLGARDNQNVVAIEIKSGDGGKSFTGTMTYAGEGPIGFKAQRTGQNQYNVENQWGGNDAPWHPGGKWVIGGRDNQNVIALSVTSSDGGKNLSGTNTYANEGPIGFRGQIE has glycan array binding signal (z-score) at least equal to -0.2. T

I'd appreciate it if you could say whether HMGB1 (Rattus norvegicus), P63159 (protein) MGKGDPKKPRGKMSSYAFFVQTCREEHKKKHPDASVNFSEFSKKCSERWKTMSAKEKGKFEDMAKADKARYEREMKTYIPPKGETKKKFKDPNAPKRPPSAFFLFCSEYRPKIKGEHPGLSIGDVAKKLGEMWNNTAADDKQPYEKKAAKLKEKYEKDIAAYRAKGKPDAAKKGVVKAEKSKKKKEEEDDEEDEEDEEEEEEEEDEDEEEDDDDE has glycan array binding signal (z-score) at least equal to -0.2. T

The values you see were collected from the supplement of paper PMC8728848.
